assayComment: Oral bioavailability in mouse at 10 mg/kg
Type: ADME, organism-based
measurementConditions: in vivo
recordedEndpoint: bioavailability
The answer should read as a number with its unit following.

# query: bioavailability of entry `CC(C)N(Cc1cnc[nH]1)c1ccc(Cl)cc1`
86%

* * *

Test system: Liver microsomes
assayComment: Intrinsic clearance in rat liver microsomes assessed per mg protein
Assay type: ADME, Microsome
recordedEndpoint: CLint (µL/min/mg)
Numbers only, in µL/min/mg.

Query (molecule): `CC(C)N(Cc1cnc[nH]1)c1ccc(Cl)cc1` ; field requested: CLint
70

* * *

assayComment: Oral bioavailability in mouse at 7.1 mg/kg
Type: ADME, organism-based
measurementConditions: in vivo
recordedEndpoint: bioavailability (%)
One number for each entry, in %.

Tell me the measured bioavailability of `CCc1cccc(CC)c1Cc1ncc[nH]1` , please.
21

* * *

target: UniProtKB P27338
Sequence (P27338 whole entry): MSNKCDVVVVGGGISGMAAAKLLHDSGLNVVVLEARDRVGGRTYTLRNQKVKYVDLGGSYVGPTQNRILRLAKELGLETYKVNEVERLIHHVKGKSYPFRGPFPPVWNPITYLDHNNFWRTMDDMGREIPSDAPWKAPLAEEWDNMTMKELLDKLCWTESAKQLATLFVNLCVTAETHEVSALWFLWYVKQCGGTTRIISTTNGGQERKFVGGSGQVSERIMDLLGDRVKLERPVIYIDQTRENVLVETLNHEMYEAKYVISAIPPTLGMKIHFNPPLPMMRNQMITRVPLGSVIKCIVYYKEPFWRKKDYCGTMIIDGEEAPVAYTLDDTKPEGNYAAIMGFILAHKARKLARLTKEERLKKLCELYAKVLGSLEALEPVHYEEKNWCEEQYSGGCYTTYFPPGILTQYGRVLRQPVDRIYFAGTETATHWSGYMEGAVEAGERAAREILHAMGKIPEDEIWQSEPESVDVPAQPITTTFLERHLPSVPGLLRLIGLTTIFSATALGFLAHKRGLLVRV
assayComment: Inhibition of human MAO-B at 10 uM by CEREP assay
recordedEndpoint: inhibition at 10 µM (%)
One number for each entry, in %.

Given the compound `CCc1cccc(CC)c1Cc1ncc[nH]1` , what is its reported inhibition at 10 µM?
0

* * *

assayComment: Lipophilicity, log D of the compound
Assay type: physicochemical
measurementConditions: octanol/water
recordedEndpoint: logD
Answers are plain numbers.

Please give the measured logD for this molecule: `CC(C)N(Cc1cnc[nH]1)c1ccc(Cl)cc1`
3.3

* * *

assayComment: Cmax in mouse at 7.1 mg/kg, po
Type: ADME, organism-based
Set-up: dose 7.1 mg/kg, route oral
measurementConditions: in vivo
recordedEndpoint: Cmax (ng/mL)
One number for each entry, in ng/mL.

If you can, please state the reported Cmax value of `CCc1cccc(CC)c1Cc1ncc[nH]1` .
300

* * *

target: Trace amine-associated receptor 1 (Homo sapiens, UniProt Q96RJ0)
Sequence (Q96RJ0 whole entry): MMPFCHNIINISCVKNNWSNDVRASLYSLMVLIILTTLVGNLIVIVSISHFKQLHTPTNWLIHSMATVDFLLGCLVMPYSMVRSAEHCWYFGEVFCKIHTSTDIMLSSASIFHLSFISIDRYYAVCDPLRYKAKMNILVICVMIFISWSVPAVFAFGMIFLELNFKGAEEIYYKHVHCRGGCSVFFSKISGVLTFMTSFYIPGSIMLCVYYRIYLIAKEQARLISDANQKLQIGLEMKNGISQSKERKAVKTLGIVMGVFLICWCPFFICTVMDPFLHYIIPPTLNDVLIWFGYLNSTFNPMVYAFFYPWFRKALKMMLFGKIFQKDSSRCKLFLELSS
recordedEndpoint: log10(Ki) (log10 of the value in µM)
Record value = log10 of Ki given in µM.

c1ccc2c(c1)CCCN2Cc1cnc[nH]1
-1.92
Clc1cccc(Cl)c1Cc1ncc[nH]1
0.14
CCc1cccc(CC)c1Cc1ncc[nH]1
-1.62

For each entry beneath this line, provide reported log10(Ki).
1. FC(F)(F)c1cccc(C(F)(F)F)c1Cc1ncc[nH]1
2. c1ccc(CC2=NCCN2)cc1

1.12
0.21

* * *

assayComment: Clearance in rat at 4.8 mg/kg, iv
Format: ADME, organism-based
Design: dose 4.8 mg/kg, route intravenous
measurementConditions: in vivo
recordedEndpoint: clearance (mL/min/kg)
One number for each entry, in mL/min/kg.

If you can, please state the reported clearance value of `CC(C)N(Cc1cnc[nH]1)c1ccc(Cl)cc1` .
40
